Test system: Tov112D
Assay: Primary qHTS to identify gynecologic anti-cancer compounds using libraries of approved drugs and bioactive compounds (AID 1345084); further: on the % scale 0 is the no-effect control and ±100 the full control effect; nearly all actives have a fitted effect of over 55% in size
Settings: Gynecologic cancer cell panel viability, ATPlite luminescence, 48 h; series mostly up to 57.5 µM
Records with an inconclusive call do not appear. Active and inactive are the calls of the source. The call rests on the fitted dose curve; in most records, active means well fitted cell-killing curve with a large enough effect; inconclusive means small, poorly fitted or top-dose-only effect, or effect the other way; inactive means flat fitted curve, though single readings scatter.
measurement_label: activity change, negative = cytotoxicity

Solved entries:
CC(=O)O[C@H]1[C@H](C)[C@@H](O)[C@H]2[C@@H]1C=C(C(=O)O)[C@H]1C[C@@H]3[C@H]([C@H]21)[C@H]1C(=O)O[C@@H]2CC[C@@]3(C)O[C@]1(O)[C@@H]2C; inactive
COc1cc(/C=C/CO)ccc1O[C@@H]1O[C@H](CO)[C@@H](O)[C@H](O)[C@H]1O; inactive
C=C1C2=CC(O)C(C)C1(C)CC/C(C)=C/CCC1(C)OC1C2=O (stereo unspecified); inactive
C[C@H]1[C@H](C)CC[C@]2(C(=O)O[C@@H]3O[C@H](CO)[C@@H](O)[C@H](O)[C@H]3O)CC[C@]3(C(=O)O)C(=CCC4[C@@]5(C)CC[C@H](O[C@@H]6O[C@H](CO)[C@@H](O)[C@H](O)[C@H]6O)C(C)(C)C5CC[C@]43C)[C@H]12 (stereo partly specified); 2.01% [at 11.6 µM] (inactive)
CC(C)CC(=O)O[C@@H]1OC=C(CO[C@@H]2O[C@H](CO[C@@H]3O[C@H](CO)[C@@H](O)[C@H](O)[C@H]3O)[C@@H](O)[C@H](O)[C@H]2O)[C@H]2C[C@H](O)[C@@H](CO)[C@@H]12; inactive

Below: the item to evaluate.
Tell me its activity change, negative = cytotoxicity given CCOC(=O)[C@H]1O[C@@H]1C(=O)N[C@@H](CC(C)C)C(=O)NCCC(C)C as the entry.
inactive
